# system-name: pUL89-C (Human cytomegalovirus, UniProt P16732)
# Sequence (P16732 418-674 limits assumed): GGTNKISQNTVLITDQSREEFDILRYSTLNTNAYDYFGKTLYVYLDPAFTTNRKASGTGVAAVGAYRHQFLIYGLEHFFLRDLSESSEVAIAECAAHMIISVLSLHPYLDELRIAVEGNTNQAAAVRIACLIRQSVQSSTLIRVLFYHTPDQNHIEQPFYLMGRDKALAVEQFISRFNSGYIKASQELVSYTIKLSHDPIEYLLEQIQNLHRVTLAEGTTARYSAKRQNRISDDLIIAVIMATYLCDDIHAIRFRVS
# assay-notes: In vitro pUL89-C endonuclease assay
# Assay type: biochemical, HCMV
# measurement-conditions: read-out: Endonuclease inhibition (%) at 20 μmol/L
endpoint: inhibition at 20 µM (%)
Give the number; % is assumed, so skip it.

Solved entries (count: 3):
[[record]]
molecule = "O=C(NCc1ccc(F)c(Cl)c1)c1cn(Cc2ccc(F)cc2)cc(O)c1=O [Compound 8n]"
endpoint = "inhibition at 20 µM"
unit_tag = "%"
assay_value = 5

[[record]]
molecule = "O=C(NCc1ccc(C(F)(F)F)cc1F)c1cn(Cc2ccc(F)cc2)cc(O)c1=O [Compound 8u]"
endpoint = "inhibition at 20 µM"
unit_tag = "%"
assay_value = 3

[[record]]
molecule = "Cc1cc(CNC(=O)c2cn(Cc3ccc(F)cc3)cc(O)c2=O)ccc1F [Compound 8s]"
endpoint = "inhibition at 20 µM"
unit_tag = "%"
assay_value = 6


Would you mind telling me what inhibition at 20 µM value was observed for O=C(Nc1ccc(F)cc1)c1cn(Cc2ccc(F)cc2)cc(O)c1=O [Compound 9b] ?
9

Would you mind telling me what inhibition at 20 µM value was observed for O=C(NCc1ccc(Cl)cc1F)c1cn(Cc2ccc(F)cc2)cc(O)c1=O [Compound 8k] ?
14

Would you mind telling me what inhibition at 20 µM value was observed for O=C(NCc1ccc(F)cc1F)c1cn(Cc2ccccc2)cc(O)c1=O [Compound 13] ?
6

Would you mind telling me what inhibition at 20 µM value was observed for O=C(NCCc1ccc(F)cc1F)c1cn(Cc2ccc(F)cc2)cc(O)c1=O [Compound 12] ?
10

Would you mind telling me what inhibition at 20 µM value was observed for CN(Cc1ccc(F)cc1F)C(=O)c1cn(Cc2ccc(F)cc2)cc(O)c1=O [Compound 11] ?
6

Would you mind telling me what inhibition at 20 µM value was observed for N#Cc1ccc(CNC(=O)c2cn(Cc3ccc(F)cc3)cc(O)c2=O)c(F)c1 [Compound 8r] ?
5

Would you mind telling me what inhibition at 20 µM value was observed for O=C(NCc1ccccc1)c1cn(Cc2ccc(F)cc2)cc(O)c1=O [Compound 8d] ?
9

Would you mind telling me what inhibition at 20 µM value was observed for O=C(NCc1ccc(Br)cc1F)c1cn(Cc2ccc(F)cc2)cc(O)c1=O [Compound 8q] ?
9

Would you mind telling me what inhibition at 20 µM value was observed for O=C(NCc1c(F)cccc1Cl)c1cn(Cc2ccc(F)cc2)cc(O)c1=O [Compound 8p] ?
5

Would you mind telling me what inhibition at 20 µM value was observed for O=C(NCc1ccc(F)cc1F)c1c[nH]cc(O)c1=O [Compound 15] ?
7

----------
# maps each entry to its inhibition at 20 µM
# system-name: pUL89-C (Human cytomegalovirus, UniProt P16732)
# assay-notes: In vitro pUL89-C endonuclease assay
# Format: biochemical, HCMV
# measurement-conditions: read-out: Endonuclease inhibition (%) at 20 μmol/L
Give the number; % is assumed, so skip it.

[[record]]
molecule = "CC(NC(=O)c1cn(Cc2ccc(F)cc2)cc(O)c1=O)c1ccc(F)cc1F (stereo not drawn) [Compound 10]"
endpoint = "inhibition at 20 µM"
assay_value = 5

[[record]]
molecule = "CCOC(=O)c1cn(Cc2ccc(F)cc2)ccc1=O [Compound 42]"
endpoint = "inhibition at 20 µM"
assay_value = 7

[[record]]
molecule = "CC1(C)OB(c2ccc(NC(=O)c3cn(Cc4ccc(F)cc4)cc(O)c3=O)cc2)OC1(C)C [Compound 9c]"
endpoint = "inhibition at 20 µM"
assay_value = 7

[[record]]
molecule = "O=C(NCc1cccc(F)c1)c1cn(Cc2ccc(F)cc2)cc(O)c1=O [Compound 8f]"
endpoint = "inhibition at 20 µM"
assay_value = 7

[[record]]
molecule = "O=C(NCc1ccc(F)cc1F)c1cn(C2CC2)cc(O)c1=O [Compound 14]"
endpoint = "inhibition at 20 µM"
assay_value = 7


Would you mind telling me what inhibition at 20 µM value was observed for O=C(NCc1ccccc1F)c1cn(Cc2ccc(F)cc2)cc(O)c1=O [Compound 8e] ?
6

Would you mind telling me what inhibition at 20 µM value was observed for O=C(NCc1cc(F)c(F)cc1F)c1cn(Cc2ccc(F)cc2)cc(O)c1=O [Compound 8v] ?
5

Would you mind telling me what inhibition at 20 µM value was observed for O=C(NCc1ccc(F)cc1F)c1cn(Cc2ccc(F)cc2)ccc1=O [Compound 17] ?
5

Would you mind telling me what inhibition at 20 µM value was observed for O=C(NCc1ccc(F)cc1)c1cn(Cc2ccc(F)cc2)cc(O)c1=O [Compound 8b] ?
7
